These measurements were taken from patent US8058243B2.

Reported Z score values for a set of compounds
System: murine neural precursor cells (neurosphere cultures)
Test: HTS of LOPAC library against secondary neurosphere cultures, MTT proliferation assay at 3 μM, day 7 (z score, P value)
Assay type: cell-based, mouse
Details: LOPAC primary screen, neurosphere MTT proliferation, 3 μM, day 7
Counter-ions that a name gives are not always drawn.
Reply briefly: the number, and no unit.

A selection of reference data follows.
Q) Any idea what its Z score is? The compound is CCN(CC)CCOC(=O)c1cc(Cl)c(N)cc1OC.Cl [SDZ-205,557 hydrochloride]
A) −2.681

Q) I would be grateful if you could share the reported Z score for CC(CCc1ccccc1)NCC(O)c1ccc(O)c(C(N)=O)c1 (centres unmarked) [Labetalol hydrochloride] .
A) −1.097

Q) Could you share which Z score value was measured for CC(CCc1ccccc1)NC(C)C(O)c1ccc(O)cc1 (centres unmarked) [Nylidrin hydrochloride] ?
A) −1.375

New cases:
Q) Given the compound CCCCCN(CCCCC)C(=O)C(CCC(=O)O)NC(=O)c1ccc(Cl)c(Cl)c1 (centres unmarked) [Lorglumide sodium] , what is its reported Z score?
A) −2.092

Q) Entry CNCCCC1c2ccccc2C=Cc2ccccc21 [Protriptyline hydrochloride] : reported Z score = ?
A) 0.760

Q) Recorded Z score for CCCN1CCO[C@@H]2c3cc(O)ccc3OC[C@H]21.Cl [S(+)-PD 128,907 hydrochloride] , please?
A) −1.174

Q) Field request: Z score | item: COc1ccccc1OCC(O)CN1CCN(CC(=O)Nc2c(C)cccc2C)CC1 (centres unmarked) [Ranolazine dihydrochloride]
A) −2.104

Q) Item COc1cccc(NC(=O)/C=C/c2ccc(Cl)cc2)c1 [SB-366791] has what recorded Z score?
A) −1.419

Q) For the compound COC(=O)c1cc2c(cn1)[nH]c1ccccc12 [Methyl beta-carboline-3-carboxylate] , what Z score is on record?
A) 0.060

Q) Dear colleague, I am looking for the recorded Z score of the following compound: CCCNCC(O)COc1ccccc1C(=O)CCc1ccccc1 (centres unmarked) [Propafenone hydrochloride]
A) −0.967

---

System: murine neural precursor cells (neurosphere cultures)
Assay: HTS of LOPAC library against secondary neurosphere cultures, MTT proliferation assay at 3 μM, day 7 (z score, P value)
Type: cell-based, mouse
Conditions: 168 h, 3 µM
measurementType: Z score
Number only, no unit.

Some solved entries appear below for comparison.
Q) I'd like to know its Z score. The molecule in question is O=c1[nH]c2ccccc2c2ccccc12
A) 0.677

Q) What value of Z score has been reported for the following molecule? Nc1nc(Cl)nc2c1ncn2[C@@H]1O[C@H](COP(=O)([O-])OP(=O)([O-])OP(=O)([O-])[O-])[C@@H](O)[C@H]1O.[Na+].[Na+].[Na+].[Na+]
A) 1.149

Q) Item under review: CC(C)(C)[C@]1(O)CCN2C[C@H]3c4ccccc4CCc4cccc(c43)[C@@H]2C1 (racemic) [(±) Butaclamol (4), (±)-Butaclamol] . Reported Z score?
A) −5.934

Continuing:
Q) Requested read-out: Z score. Entry: Nc1ncnc2c1ncn2C1CCCC1
A) 0.499

Q) Data request, read-out Z score, for N[C@@H](Cc1ccc(O)c(I)c1)C(=O)O
A) −0.048

Q) Using the record for Oc1cc(O)cc(/C=C/c2ccc(O)c(O)c2)c1 , report its Z score.
A) 0.596
